binders and their reported pIC50
target: T1, PCSK9Δhelix (human, UniProt Q8NBP7 31-152; Q8NBP7 168-692); assay: TR-FRET competition; competitor Ab20 binding to His-PCSK9Δhelix;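 note: readout is anti-His-APC on PCSK9 with anti-Fc-europium on the Fc-tagged ligand, compound incubated 30 min, normalized signal ratio fitted by four-parameter logistic regression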
T1 construct: Made by TEV cleavage of human PCSK9 M1-Q692 with an engineered TEV site; The new N-terminus of the catalytic domain is S-A168; also called His-PCSK9Δhelix; PCSK9 lacking the P' helix
T1 sequence (Q8NBP7 31-152, stated change not applied, chain 1 of 2): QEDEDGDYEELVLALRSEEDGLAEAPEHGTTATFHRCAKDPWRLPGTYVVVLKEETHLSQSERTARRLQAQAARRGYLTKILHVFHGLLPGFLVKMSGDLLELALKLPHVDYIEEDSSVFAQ
T1 sequence (Q8NBP7 other isoform, or with tags, fused parts or gaps mutant, chain 2 of 2): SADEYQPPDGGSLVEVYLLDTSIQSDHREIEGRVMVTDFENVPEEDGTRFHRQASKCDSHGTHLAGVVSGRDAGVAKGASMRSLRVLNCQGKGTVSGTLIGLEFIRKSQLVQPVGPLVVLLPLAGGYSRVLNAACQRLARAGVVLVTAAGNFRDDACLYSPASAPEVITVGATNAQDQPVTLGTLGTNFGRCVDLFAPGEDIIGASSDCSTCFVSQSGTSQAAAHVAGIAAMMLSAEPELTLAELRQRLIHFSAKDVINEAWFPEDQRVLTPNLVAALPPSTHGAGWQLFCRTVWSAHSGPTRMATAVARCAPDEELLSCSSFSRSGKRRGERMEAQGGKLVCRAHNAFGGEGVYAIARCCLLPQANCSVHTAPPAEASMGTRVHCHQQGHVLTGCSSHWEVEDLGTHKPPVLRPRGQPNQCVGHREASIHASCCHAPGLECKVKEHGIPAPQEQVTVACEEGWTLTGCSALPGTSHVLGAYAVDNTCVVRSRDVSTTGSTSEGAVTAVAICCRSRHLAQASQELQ
pIC50: −log10 of the molar value. * marks the point of attachment. Pentanoyl = CCCCC(=O)*

Binder | pIC50
Ac-DLMPANLVRIGLLR-NH2 [Compound 41] | 4.31
Ac-PWNLVRIGL-NH2 [Compound 119] | 4.31
Pentanoyl-WNLVRIGLLR-NH2 (SMILES CCCCC(=O)N[C@@H](Cc1c[nH]c2ccccc12)C(=O)N[C@@H](CC(N)=O)C(=O)N[C@@H](CC(C)C)C(=O)N[C@H](C(=O)N[C@@H](CCCNC(=N)N)C(=O)N[C@H](C(=O)NCC(=O)N[C@@H](CC(C)C)C(=O)N[C@@H](CC(C)C)C(=O)N[C@@H](CCCNC(=N)N)C(N)=O)[C@@H](C)CC)C(C)C) [Compound 111] | 5.31
Ac-DLMPWNLVRAGLLR-NH2 [Compound 58] | 4.31
Ac-DLMPWNAVRIGLLR-NH2 [Compound 61] | 4.31

src = patent US20200283478A1
